- Test system: HOP-62 NSCLC
- assay.details: NCI-60 one-dose screen, 48 h
- assay.conditions: 10 µM unless noted
Compounds without any hit were thinned out: in the full panel of roughly 83,000, 20% have a hit. Active and inactive are the calls of the source. The calls were made as follows: active = growth percent below 10; inactive = the rest.
API: response.call in active, inactive

[[record]]
compound = "CC(=O)[C@H]1CCC/C=C/[C@@H]2C[C@H](O)C[C@H]2[C@H](O)/C=C/C(=O)O1"
classification = "inactive"

[[record]]
compound = "CC(C)(C)[Si](C)(C)OC1[C@@H](O[Si](C)(C)C(C)(C)C)[C@@H](CNC(=O)NC(=O)CCl)O[C@H]1n1cnc2c(NC(=O)Nc3ccccc3)ncnc21 (stereo not given in full)"
classification = "active"

[[record]]
compound = "O=C(Cc1ccc(/C=C/C(=O)c2nccs2)cc1)Nc1ccccc1"
classification = "inactive"

[[record]]
compound = "c1ccc2c(-c3nccs3)c[nH]c2c1"
classification = "inactive"


Field: next compound
Which outcome did this test record for the compound N#CC1=C(N)Oc2c(ccc3ccccc23)C1c1ccccc1Cl (stereo not given) ?
inactive

// provenance: PubChem BioAssay (NCI)
